Each entry below carries its reported log10 Kd.
Biological target: T1, IL-23-AVI (human, UniProt Q9NPF7 20-189; P29460 23-328)
T1 construct: IL-23 p19 subunit, human; IL-12/IL-23 p40 subunit, human; Captured on streptavidin chips and beads, so biotinylation of the Avi tag is implied; also called Avi-tagged IL-23; recombinant IL-23
T1 sequence (looked up) 1: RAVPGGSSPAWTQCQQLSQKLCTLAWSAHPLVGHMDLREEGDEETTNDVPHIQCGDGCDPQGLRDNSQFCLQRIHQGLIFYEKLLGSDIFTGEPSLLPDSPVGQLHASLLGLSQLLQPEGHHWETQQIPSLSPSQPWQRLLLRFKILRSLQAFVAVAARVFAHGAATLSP
T1 sequence (looked up) 2: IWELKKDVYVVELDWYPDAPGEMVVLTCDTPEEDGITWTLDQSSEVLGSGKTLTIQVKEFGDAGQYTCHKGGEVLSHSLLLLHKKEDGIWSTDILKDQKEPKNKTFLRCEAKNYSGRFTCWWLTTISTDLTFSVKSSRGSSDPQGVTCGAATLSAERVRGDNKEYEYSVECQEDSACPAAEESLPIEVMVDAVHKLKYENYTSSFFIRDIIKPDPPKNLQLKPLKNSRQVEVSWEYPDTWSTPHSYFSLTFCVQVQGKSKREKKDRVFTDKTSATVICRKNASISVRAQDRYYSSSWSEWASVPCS
Assay: SPR; Biacore T200, 25°C, 50 μl/min; 2000–9000 RU of IL-23-AVI captured to streptavidin chip, peptides as analyte (3-fold series, up to 30 μM); 10 mM HEPES pH 7.5, 150 mM NaCl, 0.005% P20, 3% DMSO; multi-cycle, single cycle kinetics for 23–652; 1:1 model; n = 1
Details: both partners purified
readoutKind: log10 Kd (log10 of the value in µM)

binder: DTLTKSFCYFGTWCQMYGST (selected from a peptide phage library against IL-23; Two cysteines; also called FGLT-containing peptide; FGL-containing peptide; source: synthetic peptide (CPC Scientific)) [peptide 23–652 (free, chemically synthesized)]
val: -1.14

binder: HVPDPCWFGLLCDVLNS (selected from a peptide phage library against IL-23; Two cysteines; also called FGL-containing peptide; source: synthetic peptide (CPC Scientific)) [peptide 23–644 (free, chemically synthesized)]
val: 0.42

binder: GLRERCVRNYGHEFCQNWYW (selected from a peptide phage library against IL-23; Two cysteines; source: synthetic peptide (CPC Scientific)) [peptide 23–446 (free, chemically synthesized)]
val: -1.65

binder: FTKEIDSWWLSLMSS (selected from a peptide phage library against IL-23; No cysteines, 15 residues; source: synthetic peptide (CPC Scientific)) [peptide 23–437 (free, chemically synthesized)]
val: 1.02

binder: QKITQCVYIIWTYPCLLNDV (selected from a peptide phage library against IL-23; Two cysteines; source: synthetic peptide (CPC Scientific)) [peptide 23–441 (free, chemically synthesized)]
val: -0.04
